Target: Histone-lysine N-methyltransferase EHMT2 (Homo sapiens)
Assay: qHTS Assay for Inhibitors of Histone Lysine Methyltransferase G9a; note: nearly all actives have a fitted effect of over 75% in size
Details: G9a H3K9 monomethylation, AlphaScreen, 2 h; series mostly up to 59 µM
The whole screen tested about 350,000 compounds, of which about 31,000 (8.9%) were called active. Inconclusive results (about 15%) are left out. Calls come from the whole dose curve; as a rule, active = well fitted inhibition curve with a large enough effect; inconclusive = small, poorly fitted or top-dose-only effect; inactive = no such curve, though single readings can be large or run the other way. The full list was thinned out, with actives kept by preference.
Classes used: active, inactive

COMPOUND: CCOC(=O)C1CCN(S(=O)(=O)c2ccc3c(c2)N(C(C)=O)CCO3)CC1
ASSIGNED LABEL: inactive
//
COMPOUND: NS(=O)(=O)c1ccc(CCNC(=O)CCCCCn2c(=O)[nH]c3ccccc3c2=O)cc1
ASSIGNED LABEL: inactive
//
COMPOUND: CCc1ccc(NC(=O)NC(C)c2ccc3c(c2)OCO3)cc1 (stereo unspecified)
ASSIGNED LABEL: inactive
//
COMPOUND: CC(C)C(=O)Nc1cccc(C(=O)Nc2ccc3c(c2)OCO3)c1
ASSIGNED LABEL: inactive
//
COMPOUND: CCSc1ccccc1C(=O)Nc1ccc2c(c1)OCO2
ASSIGNED LABEL: active
//
COMPOUND: CCOC(=O)C1CCCN(S(=O)(=O)c2ccc3c(c2)C(C)(C)C(=O)N3C)C1 (stereo unspecified)
ASSIGNED LABEL: inactive
//
COMPOUND: Cc1cc(/C=C(/C#N)C(=O)Nc2ccc(Cl)cc2)c(C)n1-c1cccnc1
ASSIGNED LABEL: inactive
//
COMPOUND: CC1CCCCC1NC(=O)CCS(=O)(=O)c1ccc2c(c1)NC(=O)CO2 (stereo unspecified)
ASSIGNED LABEL: inactive
//
COMPOUND: CC(C)NC(=O)CSc1ccccc1C(=O)NCc1ccc2c(c1)OCO2
ASSIGNED LABEL: inactive
//
COMPOUND: O=C(/C=C/c1ccc(N2CCOCC2)cc1)c1ccccc1
ASSIGNED LABEL: inactive
//
COMPOUND: CC(NC(=O)Nc1cccc([N+](=O)[O-])c1)c1ccc2c(c1)OCO2 (stereo unspecified)
ASSIGNED LABEL: inactive

====

Target: Histone-lysine N-methyltransferase EHMT2 (Homo sapiens)
Assay: qHTS Assay for Inhibitors of Histone Lysine Methyltransferase G9a; note: nearly all actives have a fitted effect of over 75% in size; note: potency is the fitted concentration of half-maximal effect
Details: G9a H3K9 monomethylation, AlphaScreen, 2 h; series mostly up to 59 µM
Screen size: about 350,000 compounds; about 31,000 (8.9%) were called active. Roughly 15% stayed inconclusive and do not appear here. Shown is part of a subset that was picked to be rich in actives.

MOLECULE: CCCc1ccc(OCC(=O)NNC(=S)NC(=O)c2ccco2)cc1
ASSAYED TARGET: Histone-lysine N-methyltransferase EHMT2 (Homo sapiens)
Potency: 2.24 µM (active)
--
MOLECULE: Cc1c(-c2cccc(Cl)c2)nc2ccccc2c1C(=O)OCC(=O)N(C)C1CCS(=O)(=O)C1 (stereo unspecified)
ASSAYED TARGET: Histone-lysine N-methyltransferase EHMT2 (Homo sapiens)
Potency: inactive
--
MOLECULE: COc1ccccc1NC(=O)C1=C(C)Nc2ncnn2C1c1sccc1C (stereo unspecified)
ASSAYED TARGET: Histone-lysine N-methyltransferase EHMT2 (Homo sapiens)
Potency: inactive
--
MOLECULE: COc1ccc(CCN2C(=O)N(c3cccc(OC)c3)C(=O)C2CC(=O)Nc2ccccc2)cc1 (stereo unspecified)
ASSAYED TARGET: Histone-lysine N-methyltransferase EHMT2 (Homo sapiens)
Potency: inactive
--
MOLECULE: COc1ccc(CNC(=O)c2cc3c(-c4ccccc4F)nn(C)c3s2)c(OC)c1
ASSAYED TARGET: Histone-lysine N-methyltransferase EHMT2 (Homo sapiens)
Potency: inactive
--
MOLECULE: Cc1nn(CC(=O)NC2CCCCC2)c(=O)c2cccn12
ASSAYED TARGET: Histone-lysine N-methyltransferase EHMT2 (Homo sapiens)
Potency: inactive
--
MOLECULE: CN(C(=O)COC(=O)c1cc(-c2ccco2)nc2ccccc12)C1CCS(=O)(=O)C1 (stereo unspecified)
ASSAYED TARGET: Histone-lysine N-methyltransferase EHMT2 (Homo sapiens)
Potency: 2.51 µM (active)
--
MOLECULE: COc1ccc(C(=O)CN2C(=O)NC3(CCc4ccccc43)C2=O)c(OC)c1 (stereo unspecified)
ASSAYED TARGET: Histone-lysine N-methyltransferase EHMT2 (Homo sapiens)
Potency: inactive
--
MOLECULE: CCCc1ccc(OCCNC(=O)c2ccco2)cc1
ASSAYED TARGET: Histone-lysine N-methyltransferase EHMT2 (Homo sapiens)
Potency: inactive
--
MOLECULE: O=C(Nc1ccccc1N1CCCCC1)c1ccc2nccnc2c1
ASSAYED TARGET: Histone-lysine N-methyltransferase EHMT2 (Homo sapiens)
Potency: inactive
--
MOLECULE: C/C(CCC(=O)OC[C@H]1O[C@H](C#Cc2ccccc2)C=C[C@@H]1Oc1ccc(C)cc1)=N\OC[C@@H](O)[C@H]1O[C@@H]2OC(C)(C)O[C@@H]2[C@H]1O
ASSAYED TARGET: Histone-lysine N-methyltransferase EHMT2 (Homo sapiens)
Potency: 50.1 µM (active)
--
MOLECULE: COc1cc(NC(=O)c2cc(C3CC3)nc3c2c(C)nn3-c2ccccc2)cc(OC)c1
ASSAYED TARGET: Histone-lysine N-methyltransferase EHMT2 (Homo sapiens)
Potency: inactive
--
MOLECULE: O=C(NCC(c1ccco1)N1CCc2ccccc21)c1cccc(F)c1 (stereo unspecified)
ASSAYED TARGET: Histone-lysine N-methyltransferase EHMT2 (Homo sapiens)
Potency: 50.1 µM (active)
--
MOLECULE: Cc1ccc(Cl)cc1NC(=O)CCC(=O)N1CC(C)Sc2ccccc21 (stereo unspecified)
ASSAYED TARGET: Histone-lysine N-methyltransferase EHMT2 (Homo sapiens)
Potency: inactive
--
MOLECULE: CC1Cc2ccccc2N1S(=O)(=O)c1cccc(C(=O)NCC(c2ccco2)N2CCCC2)c1 (stereo unspecified)
ASSAYED TARGET: Histone-lysine N-methyltransferase EHMT2 (Homo sapiens)
Potency: 39.8 µM (active)
--
MOLECULE: Cc1ccc(OCC(=O)NCCCNC(=O)c2ccco2)cc1C
ASSAYED TARGET: Histone-lysine N-methyltransferase EHMT2 (Homo sapiens)
Potency: inactive
--
MOLECULE: O=C(CNC(c1ccccc1)c1ccccc1)Nc1ccc(F)cc1
ASSAYED TARGET: Histone-lysine N-methyltransferase EHMT2 (Homo sapiens)
Potency: inactive
--
MOLECULE: CC(C)CCNC(=O)CSc1nc2ccccc2nc1Cc1ccc(Cl)cc1
ASSAYED TARGET: Histone-lysine N-methyltransferase EHMT2 (Homo sapiens)
Potency: inactive
--
MOLECULE: O=C(CCN1C(=O)C2CCCCC2C1=O)Nc1ccc(OC(F)F)cc1 (stereo unspecified)
ASSAYED TARGET: Histone-lysine N-methyltransferase EHMT2 (Homo sapiens)
Potency: inactive
--
MOLECULE: O=C(Cn1nc([N+](=O)[O-])nc1Br)NC1CCCCC1
ASSAYED TARGET: Histone-lysine N-methyltransferase EHMT2 (Homo sapiens)
Potency: inactive
--
MOLECULE: COc1ccccc1CCC(=O)NNC(=O)c1ccncc1
ASSAYED TARGET: Histone-lysine N-methyltransferase EHMT2 (Homo sapiens)
Potency: inactive

====

Biological target: Histone-lysine N-methyltransferase EHMT2 (Homo sapiens)
Test: qHTS Assay for Inhibitors of Histone Lysine Methyltransferase G9a; note: nearly all actives have a fitted effect of over 75% in size
Conditions: G9a H3K9 monomethylation, AlphaScreen, 2 h; series mostly up to 59 µM
About 31,000 (8.9%) of roughly 350,000 compounds were called active. About 15% were inconclusive and are not listed. Calls follow the shape of the dose curve; as a rule, active = well fitted inhibition curve with a large enough effect; inconclusive = small, poorly fitted or top-dose-only effect; inactive = no such curve, though single readings can be large or run the other way. The entries come from a sample that favours actives as a whole.
Classes used: T = active, F = inactive

TEST SMILES: CCN(CC)S(=O)(=O)c1cc([N+](=O)[O-])ccc1N=Nc1c(O)n(C)c2ccccc12
ASSIGNED LABEL: F
//
TEST SMILES: O=C(COc1ccccc1[N+](=O)[O-])NC1CC1
ASSIGNED LABEL: F
//
TEST SMILES: NC(=O)c1ccc(Nc2ccc3c(c2)CCC3)c([N+](=O)[O-])c1
ASSIGNED LABEL: F
//
TEST SMILES: COc1cccc(NC(=O)N2CCN(C(=O)c3nsc4ccccc34)CC2)c1
ASSIGNED LABEL: F
//
TEST SMILES: CC(=O)c1ccc(NC(=O)Nc2ccc([N+](=O)[O-])cc2C)cc1
ASSIGNED LABEL: F
//
TEST SMILES: CC1(C)Cc2c(sc3nc(SCC(=O)NCc4ccccc4)n(-c4ccccc4)c(=O)c23)CS1
ASSIGNED LABEL: F
//
TEST SMILES: Cc1ccc(F)cc1NC(=O)CCSc1nc(-c2ccco2)cc(C(F)(F)F)n1
ASSIGNED LABEL: F
//
TEST SMILES: CCOc1ccc(-n2c(SCC(=O)Nc3ccc(OC)cc3)nc3sc4c(c3c2=O)CCN(C)C4)cc1
ASSIGNED LABEL: T
//
TEST SMILES: CCOc1ccc(NC(=O)CSc2nc3c(c(=O)n2-c2ccccc2OC)SCC3)cc1
ASSIGNED LABEL: T
//
TEST SMILES: CCOC(=O)c1sc(NC(=O)CSc2nc3c(c(=O)n2-c2ccccc2)SCC3)c(C(=O)OCC)c1C
ASSIGNED LABEL: F
